# EXPERIMENTAL_PROTOCOL: NCI Yeast Anticancer Drug Screen. Data for the rad50 strain (AID 155);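 note: 0% = growth of vehicle-only cultures of the same strain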
# ASSAY_CONDITIONS: S. cerevisiae rad50 strain growth inhibition; at 50.0 µM; stronger effect = higher value
Compounds without any hit were thinned out: in the full panel of roughly 79,000, 15% have a hit.
Listed below: growth inhibition values for each entry.
Give the value, in units of %, as a plain number.

Some molecules with recorded growth inhibition:
- MOLECULE: "CC(=O)C1(c2ccccc2)CCNCC1"
  growth inhibition [%]: -1
- MOLECULE: "NC(CCOCCP(=O)(O)O)C(=O)O (configuration not stated)"
  growth inhibition [%]: -51.3
- MOLECULE: "COc1ccc([Se]c2ccc(OC)cc2)cc1"
  growth inhibition [%]: 0
- MOLECULE: "N#CS.[Ag]"
  growth inhibition [%]: 60.8
- MOLECULE: "[CH3][Sn]([CH3])([S]CCS(=O)(=O)O)[S]CCS(=O)(=O)O"
  growth inhibition [%]: 33.5

In: Quick check: growth inhibition of "C=CCCOC(=O)CO[N+](=O)[O-]" ?
Out: 6.8

In: Quick check: growth inhibition of COC(=O)N/N=C(/CCN1CCCC1)CC(c1ccccc1)c1c(O)c2ccccc2oc1=O (configuration not stated) ?
Out: 19.4
